Tested on: glioblastoma cell line 687586
Experiment: Glioblastoma cancer cell viability, cell line 687586
Format: cell-based
Structures can show the parent of a compound that is named as a salt.

{"columns": ["molecule", "assay_system", "IC50, nM"],
 "data": [
  ["CN(C)CCNC(=O)c1ccc(-c2ccc(-c3ccc(Cl)cc3)n2-c2ccccc2C(F)(F)F)cc1 [Example 33, Hydrochloride]", "glioblastoma cell line 687586", 489]
]}

----------
System: glioblastoma cell line 949094
Assay: Glioblastoma cancer cell viability, cell line 949094
Assay type: cell-based
Where a name gives a salt, the structure may show the parent alone.

{"columns": ["compound", "assay_system", "scale_unit", "IC50"],
 "data": [
  ["CN(C)CCNC(=O)c1ccc(-c2ccc(-c3ccc(Cl)cc3)n2-c2ccccc2C(F)(F)F)cc1 [Example 33, Hydrochloride]", "glioblastoma cell line 949094", "nM", 709]
]}
